The measured values listed here are drawn from patent US20250236608A1.

I'd be grateful if you could share measured pIC50 for these entries.
biological target: EGFR L858R (Homo sapiens (Human), UniProt P00533, L858R); assay: Biochemical EGFR inhibition assay, EGFR L858R; details: Caliper mobility shift; 1.0 mM ATP or ATP Km; read-out: Enz EGFR_L858R IC50
Sequence (P00533 25-1210 L858R): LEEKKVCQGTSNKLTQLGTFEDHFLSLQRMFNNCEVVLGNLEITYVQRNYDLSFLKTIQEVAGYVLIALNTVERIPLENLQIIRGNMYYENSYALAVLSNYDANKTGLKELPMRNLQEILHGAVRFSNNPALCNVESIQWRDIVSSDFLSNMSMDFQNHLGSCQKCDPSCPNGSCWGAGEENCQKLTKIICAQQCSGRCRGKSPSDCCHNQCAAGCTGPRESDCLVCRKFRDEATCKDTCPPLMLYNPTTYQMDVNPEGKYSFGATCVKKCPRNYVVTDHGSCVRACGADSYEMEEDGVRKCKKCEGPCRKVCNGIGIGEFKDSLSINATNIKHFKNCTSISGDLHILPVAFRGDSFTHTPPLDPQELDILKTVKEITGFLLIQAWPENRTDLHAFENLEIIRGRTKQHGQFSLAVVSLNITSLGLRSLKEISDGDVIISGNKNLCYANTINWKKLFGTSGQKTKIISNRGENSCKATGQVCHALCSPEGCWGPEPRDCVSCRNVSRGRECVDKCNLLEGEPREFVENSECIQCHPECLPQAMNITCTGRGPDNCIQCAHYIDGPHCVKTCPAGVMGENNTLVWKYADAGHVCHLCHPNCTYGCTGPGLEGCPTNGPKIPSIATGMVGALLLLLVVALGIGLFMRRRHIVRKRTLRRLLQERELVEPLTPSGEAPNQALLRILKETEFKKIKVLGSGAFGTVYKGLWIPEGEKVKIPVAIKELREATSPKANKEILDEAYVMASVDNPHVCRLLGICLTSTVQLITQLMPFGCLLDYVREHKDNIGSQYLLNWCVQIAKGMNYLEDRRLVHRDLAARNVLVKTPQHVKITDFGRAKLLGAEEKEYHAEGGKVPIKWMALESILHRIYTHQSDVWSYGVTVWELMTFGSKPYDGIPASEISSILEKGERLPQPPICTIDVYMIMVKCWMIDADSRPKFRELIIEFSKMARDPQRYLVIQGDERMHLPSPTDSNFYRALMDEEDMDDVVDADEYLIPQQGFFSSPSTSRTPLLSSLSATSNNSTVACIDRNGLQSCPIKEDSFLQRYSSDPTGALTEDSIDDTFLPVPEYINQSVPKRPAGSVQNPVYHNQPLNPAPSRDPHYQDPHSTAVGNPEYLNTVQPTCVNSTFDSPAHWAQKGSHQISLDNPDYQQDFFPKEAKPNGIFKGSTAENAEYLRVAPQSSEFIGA
Scale explanation: pIC50 corresponds to minus log10 of a concentration expressed in moles per litre.

Which pIC50 is reported for this molecule? COc1cc2ncnc(-c3cn(C)nc3-c3ccccc3)c2cc1NC(=O)c1sc(C2CC2)nc1C
8.59

Which pIC50 is reported for this molecule? COc1cc2ncnc(-c3c[nH]nc3-c3ccc(F)cc3)c2nc1NC(=O)[C@]12COC[C@H]1C2
8.26

Which pIC50 is reported for this molecule? COc1cc2ncnc(-c3cn(C)nc3-c3c(F)cccc3F)c2nc1NC(=O)[C@]12C[C@H]1CN(C)C2 (single isomer, unassigned)
8.00

Which pIC50 is reported for this molecule? COc1cc2ncnc(-c3cn(C)nc3-c3ccccc3)c2nc1NC(=O)c1cnn(C(F)(F)F)c1C
8.70

Which pIC50 is reported for this molecule? COc1cc2ncnc(-c3cn(C)nc3-c3ccccc3)c2cc1NC(=O)c1c(C)cccc1F
8.70

Which pIC50 is reported for this molecule? CCn1cc(-c2ncnc3cc(OC)c(NC(=O)[C@]45COC[C@H]4C5)cc23)c(-c2ccccc2)n1
8.82

Which pIC50 is reported for this molecule? COc1cc2ncnc(-c3cn(CC(F)F)nc3-c3ccccc3)c2nc1NC(=O)[C@H]1CCN1C
8.60

Which pIC50 is reported for this molecule? CCOc1cc2ncnc(-c3cn(C)nc3-c3ccc(F)cc3)c2nc1NC(=O)[C@]12C[C@H]1CN(C)C2 (single isomer, unassigned)
8.89

Which pIC50 is reported for this molecule? COc1cc2ncnc(-c3cn(C)nc3-c3ccccc3)c2cc1NC(=O)[C@@H]1C[C@H]1C(F)(F)F
8.46

Which pIC50 is reported for this molecule? CN1CCC(n2cc(-c3ccc4c(-c5cn(C)nc5-c5ccccc5)ncnc4c3)cn2)CC1
8.92

Which pIC50 is reported for this molecule? COc1cc2ncnc(-c3cn(C)nc3-c3ccccc3)c2cc1NC(=O)c1cn(C(F)(F)F)nc1C
8.80

Which pIC50 is reported for this molecule? COc1cc2ncnc(-c3cn(C)nc3-c3ccccc3)c2cc1N1CCC[C@@H](O)C1
8.47

Which pIC50 is reported for this molecule? COc1cc2ncnc(-c3cn(C)nc3-c3ccccc3)c2cc1OC(=O)N1CCOCC12CC2
8.21

Which pIC50 is reported for this molecule? COc1cc2ncnc(-c3cn(CC(F)F)nc3-c3ccccc3)c2cc1NC(=O)[C@]12COC[C@H]1C2
8.72

Which pIC50 is reported for this molecule? COc1cc2ncnc(-c3cn(CC(F)F)nc3-c3ccccc3)c2cc1NC(=O)c1ccc(C2CC2)nc1
8.89

Which pIC50 is reported for this molecule? COc1cc2ncnc(-c3cn(C)nc3-c3ccccc3)c2cc1-c1cccc2c1nc(CO)n2C
8.15

Which pIC50 is reported for this molecule? CCOc1cc2ncnc(-c3cn(C)nc3-c3ccc(F)cc3)c2nc1NC(=O)[C@]12COC[C@H]1C2 (single isomer, unassigned)
8.96

Which pIC50 is reported for this molecule? CCC(=O)Nc1cc2c(-c3cn(C)nc3-c3c(F)cccc3F)ncnc2cc1-c1ccn(C)n1
8.89

Which pIC50 is reported for this molecule? Cn1cc(-c2ccc3c(-c4c[nH]nc4-c4cc(F)ccc4F)ncnc3c2)cn1
9.30

Which pIC50 is reported for this molecule? COc1cc2ncnc(-c3cn(CC(F)F)nc3-c3ccccc3)c2cc1OC(=O)N1CCN(C)C[C@@H]1C
8.57

Which pIC50 is reported for this molecule? COc1cc2ncnc(-c3cn(C)nc3-c3c(F)cccc3F)c2cc1NC(=O)[C@]12C[C@H]1CN(C)C2
6.56

Which pIC50 is reported for this molecule? CCn1cc(-c2ncnc3cc(OC)c(NC(=O)[C@@]45COC[C@@H]4C5)nc23)c(-c2ccccc2)n1 (single isomer, unassigned)
8.19

Which pIC50 is reported for this molecule? COc1cc2ncnc(-c3cn(C)nc3-c3ccccc3)c2cc1N1CC2(COC2)C1
8.34

Which pIC50 is reported for this molecule? COc1cc2ncnc(-c3cn(CCO)nc3-c3ccccc3)c2nc1NC(=O)c1cnn(C(F)(F)F)c1
8.52

Which pIC50 is reported for this molecule? COc1cc2ncnc(-c3cn(C4CC4)nc3-c3ccccc3)c2nc1NC(=O)c1cnn(C(F)(F)F)c1
8.74

Which pIC50 is reported for this molecule? COc1cc2ncnc(-c3cn(C)nc3-c3ccccc3)c2cc1NC(=O)N1C[C@H](C)N(C)C[C@@H]1C
8.21

Which pIC50 is reported for this molecule? COc1cc2ncnc(-c3cn(C)nc3-c3ccccc3)c2cc1OC(=O)N1CCN2CCCC2C1 (stereo in doubt) [Example 85]
8.41

Which pIC50 is reported for this molecule? COc1cc2ncnc(-c3cn(C)nc3-c3ccccc3)c2cc1OC(=O)N1C[C@H](C)N(C)C[C@@H]1C
8.11

Which pIC50 is reported for this molecule? CCOc1cc2ncnc(-c3cn(CC)nc3-c3ccccc3)c2cc1[C@H](C)O (single isomer, unassigned)
8.89

====

I'd be grateful if you could share measured pIC50 for these entries.
biological target: EGFR (d746-750) (Homo sapiens (Human), UniProt P00533, DEL746-750); assay: Biochemical EGFR inhibition assay, EGFR (d746-750); conditions: Caliper mobility shift; 1.0 mM ATP or ATP Km; read-out: Enz EGFR_Exon19-del746-750 IC50
Sequence (P00533 other isoform, or with tags, fused parts or gaps del 1-694/del 746-750 limits assumed): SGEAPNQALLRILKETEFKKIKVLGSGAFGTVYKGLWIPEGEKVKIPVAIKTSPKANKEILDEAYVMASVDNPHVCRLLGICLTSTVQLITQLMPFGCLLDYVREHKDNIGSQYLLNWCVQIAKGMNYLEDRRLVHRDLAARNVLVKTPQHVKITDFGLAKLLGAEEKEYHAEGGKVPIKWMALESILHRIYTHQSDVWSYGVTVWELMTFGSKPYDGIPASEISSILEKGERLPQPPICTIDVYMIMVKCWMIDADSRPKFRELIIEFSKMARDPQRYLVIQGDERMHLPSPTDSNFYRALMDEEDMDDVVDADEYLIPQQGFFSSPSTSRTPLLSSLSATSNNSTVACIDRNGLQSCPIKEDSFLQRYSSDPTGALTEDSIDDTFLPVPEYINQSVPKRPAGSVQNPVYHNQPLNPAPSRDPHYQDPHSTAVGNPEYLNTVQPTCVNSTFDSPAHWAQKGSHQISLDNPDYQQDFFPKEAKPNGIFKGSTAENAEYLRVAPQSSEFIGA
Scale explanation: pIC50 corresponds to minus log10 of a concentration expressed in moles per litre.

Which pIC50 is reported for this compound? CCC(=O)Nc1cc2c(-c3cn(C4CCOCC4)nc3-c3ccccc3)ncnc2cc1OC
8.82

Which pIC50 is reported for this compound? CCn1cc(-c2ncnc3cc(OC)c(NC(=O)[C@@]45COC[C@@H]4C5)cc23)c(-c2ccccc2F)n1 (mixture of isomers)
9.22

Which pIC50 is reported for this compound? CCn1cc(-c2ncnc3cc(OC)c(NC(=O)[C@@]45COC[C@@H]4C5)nc23)c(-c2ccccc2)n1 (single isomer, unassigned)
9.15

Which pIC50 is reported for this compound? CCOc1cc2ncnc(-c3cn(C4CC4)nc3-c3ccccc3)c2cc1[C@@H](C)O (single isomer, unassigned)
9.15

Which pIC50 is reported for this compound? CN1CCC(n2cc(-c3ccc4c(-c5cn(C)nc5-c5ccccc5)ncnc4c3)cn2)CC1
9.10

Which pIC50 is reported for this compound? CCn1cc(-c2ncnc3cc(OC)c(NC(=O)C45CC(C4)C5)nc23)c(-c2ccccc2)n1
8.96

Which pIC50 is reported for this compound? [2H]C([2H])([2H])n1ncc(-c2ncnc3cc(OC)c(NC(=O)C45CC(N(C)C)(C4)C5)nc23)c1-c1ccccc1
7.50

====

I'd be grateful if you could share measured pIC50 for these entries.
biological target: pEGFR (Tyr1068) in PC-9 cells (Ex19Del) (Homo sapiens (Human), UniProt P00533, DEL746-750); test: PC-9 pEGFR AlphaLISA assay; conditions: 4 hours incubation, p-EGFR (Tyr1068) AlphaLISA, read-out: Ext pEGFR_PC-9 Ex19Del IC50
Sequence (P00533 other isoform, or with tags, fused parts or gaps del 746-750): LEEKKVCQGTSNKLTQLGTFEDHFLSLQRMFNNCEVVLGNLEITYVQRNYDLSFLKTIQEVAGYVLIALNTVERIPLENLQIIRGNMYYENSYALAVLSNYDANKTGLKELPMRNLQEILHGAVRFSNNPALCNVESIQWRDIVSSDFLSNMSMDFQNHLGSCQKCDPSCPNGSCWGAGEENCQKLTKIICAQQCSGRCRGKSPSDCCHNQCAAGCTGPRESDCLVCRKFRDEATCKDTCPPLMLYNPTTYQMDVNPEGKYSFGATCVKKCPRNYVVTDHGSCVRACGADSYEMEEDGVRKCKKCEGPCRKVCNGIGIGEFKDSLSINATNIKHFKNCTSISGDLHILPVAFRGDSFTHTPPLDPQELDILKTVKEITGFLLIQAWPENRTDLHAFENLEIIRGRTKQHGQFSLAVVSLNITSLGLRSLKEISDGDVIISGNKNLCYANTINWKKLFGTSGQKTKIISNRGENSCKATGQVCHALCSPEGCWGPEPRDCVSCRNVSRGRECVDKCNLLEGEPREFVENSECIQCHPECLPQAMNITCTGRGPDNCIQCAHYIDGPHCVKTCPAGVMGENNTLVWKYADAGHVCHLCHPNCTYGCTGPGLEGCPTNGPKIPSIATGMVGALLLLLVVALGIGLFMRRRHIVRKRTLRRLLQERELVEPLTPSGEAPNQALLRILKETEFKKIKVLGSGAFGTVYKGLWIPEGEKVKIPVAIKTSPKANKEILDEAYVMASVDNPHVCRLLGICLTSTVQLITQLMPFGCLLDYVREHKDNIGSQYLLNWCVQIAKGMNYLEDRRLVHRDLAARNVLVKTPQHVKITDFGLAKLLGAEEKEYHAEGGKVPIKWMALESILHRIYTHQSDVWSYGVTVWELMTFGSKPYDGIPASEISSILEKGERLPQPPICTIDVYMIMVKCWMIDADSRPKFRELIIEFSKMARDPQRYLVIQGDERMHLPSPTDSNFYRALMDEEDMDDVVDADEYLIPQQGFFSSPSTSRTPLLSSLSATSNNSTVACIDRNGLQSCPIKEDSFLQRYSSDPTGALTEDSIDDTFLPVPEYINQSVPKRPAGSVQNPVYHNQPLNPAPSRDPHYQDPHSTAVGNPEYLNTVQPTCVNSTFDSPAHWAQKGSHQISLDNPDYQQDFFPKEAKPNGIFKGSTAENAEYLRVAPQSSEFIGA
Scale explanation: pIC50 corresponds to minus log10 of a concentration expressed in moles per litre.

Which pIC50 is reported for this compound? CCn1cc(-c2ncnc3cc(OC)c(OC(=O)N4CCN(C)C[C@@H]4C)cc23)c(-c2ccccc2)n1
8.62

Which pIC50 is reported for this compound? CCc1cc2ncnc(-c3cn(C)nc3-c3ccccc3)c2nc1NC(=O)C12COCC1C2 (stereo not shown)
7.83

Which pIC50 is reported for this compound? COc1cc2ncnc(-c3cn(C)nc3-c3ccccc3)c2cc1NC(=O)[C@@]12C[C@@H]1CN(C)C2
8.40

Which pIC50 is reported for this compound? COc1cc2ncnc(-c3cn(C)nc3-c3ccccc3)c2nc1OC(C)c1cscn1 (stereo not shown)
8.96

Which pIC50 is reported for this compound? CCOc1cc2ncnc(-c3cn(C)nc3-c3ccc(F)cc3)c2nc1NC(=O)[C@]12COC[C@H]1C2 (single isomer, unassigned)
8.96

Which pIC50 is reported for this compound? COc1cc2ncnc(-c3cn(C)nc3-c3ccccc3)c2cc1NC(=O)C(C)N(C)C (stereo not shown)
8.33

Which pIC50 is reported for this compound? COc1cc2ncnc(-c3cn(C)nc3-c3ccccc3)c2cc1NC(=O)[C@H]1C[C@@H]1C(F)(F)F
7.89

====

I'd be grateful if you could share measured pIC50 for these entries.
target: pEGFR (Tyr1068) in PC-9 cells (Ex19Del) (Homo sapiens (Human), UniProt P00533, DEL746-750); assay: PC-9 pEGFR AlphaLISA assay; details: 4 hours incubation, p-EGFR (Tyr1068) AlphaLISA, read-out: Ext pEGFR_PC-9 Ex19Del IC50
Scale explanation: pIC50 corresponds to minus log10 of a concentration expressed in moles per litre.

Query for pEGFR (Tyr1068) in PC-9 cells (Ex19Del) (Homo sapiens (Human), UniProt P00533, DEL746-750): what pIC50 does the record show for [2H]C([2H])([2H])n1ncc(-c2ncnc3cc(OC)c(NC(=O)C45CC(N(C)C)(C4)C5)nc23)c1-c1ccccc1 ?
6.59

Query for pEGFR (Tyr1068) in PC-9 cells (Ex19Del) (Homo sapiens (Human), UniProt P00533, DEL746-750): what pIC50 does the record show for CCOc1cc2ncnc(-c3cn(C)nc3-c3ccccc3)c2cc1NC(=O)c1cccnc1 ?
8.96

Query for pEGFR (Tyr1068) in PC-9 cells (Ex19Del) (Homo sapiens (Human), UniProt P00533, DEL746-750): what pIC50 does the record show for COc1cc2ncnc(-c3cn(C)nc3-c3ccccc3)c2cc1NC(=O)C1CC(F)(F)C1 ?
9.05

Query for pEGFR (Tyr1068) in PC-9 cells (Ex19Del) (Homo sapiens (Human), UniProt P00533, DEL746-750): what pIC50 does the record show for COc1cc2ncnc(-c3cn(C)nc3-c3ccccc3)c2nc1NC(=O)[C@]1(C(F)(F)F)CCCN1C (single isomer, unassigned) ?
7.80

Query for pEGFR (Tyr1068) in PC-9 cells (Ex19Del) (Homo sapiens (Human), UniProt P00533, DEL746-750): what pIC50 does the record show for COc1cc2ncnc(-c3cn(C)nc3-c3ccccc3)c2cc1NC(=O)c1cnn(C)c1 ?
8.96

Query for pEGFR (Tyr1068) in PC-9 cells (Ex19Del) (Homo sapiens (Human), UniProt P00533, DEL746-750): what pIC50 does the record show for COc1cc2ncnc(-c3cn(C)nc3-c3ccccc3)c2cc1NC(=O)C1(CN(C)C)CC1 ?
8.37

Query for pEGFR (Tyr1068) in PC-9 cells (Ex19Del) (Homo sapiens (Human), UniProt P00533, DEL746-750): what pIC50 does the record show for COc1cc2ncnc(-c3cn(C)nc3-c3ccccc3)c2nc1NC(=O)[C@]12COC[C@H]1C2 (single isomer, unassigned) ?
8.60
